# targetOrSystem: A. baumannii topoisomerase IA (AbTopoIA) (Acinetobacter baumannii, UniProt A0ABX6CBM5)
# Sequence (A0ABX6CBM5 1-878): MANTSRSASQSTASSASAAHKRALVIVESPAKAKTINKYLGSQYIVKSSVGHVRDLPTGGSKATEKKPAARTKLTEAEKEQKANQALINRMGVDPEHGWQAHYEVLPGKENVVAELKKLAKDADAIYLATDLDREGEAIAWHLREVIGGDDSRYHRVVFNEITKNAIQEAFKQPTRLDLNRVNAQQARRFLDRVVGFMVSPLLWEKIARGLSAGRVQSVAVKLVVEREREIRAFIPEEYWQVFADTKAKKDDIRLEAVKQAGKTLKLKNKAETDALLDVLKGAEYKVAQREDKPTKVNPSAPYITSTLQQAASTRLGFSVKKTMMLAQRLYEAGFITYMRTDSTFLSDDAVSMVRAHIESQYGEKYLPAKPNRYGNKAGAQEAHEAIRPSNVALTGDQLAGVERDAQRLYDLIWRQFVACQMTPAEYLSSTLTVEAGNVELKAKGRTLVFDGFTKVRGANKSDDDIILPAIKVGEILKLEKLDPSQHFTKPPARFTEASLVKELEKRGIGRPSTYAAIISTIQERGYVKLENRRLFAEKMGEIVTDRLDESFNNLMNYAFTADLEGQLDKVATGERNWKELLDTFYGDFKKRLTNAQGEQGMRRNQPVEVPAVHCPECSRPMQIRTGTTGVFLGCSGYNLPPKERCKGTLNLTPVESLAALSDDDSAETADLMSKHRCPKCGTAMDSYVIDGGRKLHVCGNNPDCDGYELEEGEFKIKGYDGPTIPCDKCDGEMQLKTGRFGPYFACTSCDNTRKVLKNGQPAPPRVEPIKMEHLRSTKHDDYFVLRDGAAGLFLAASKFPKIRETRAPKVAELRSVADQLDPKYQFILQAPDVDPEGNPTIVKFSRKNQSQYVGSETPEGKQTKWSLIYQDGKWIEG
measure: IC50 (µM)
Reply with just the number (in µM).

Reported IC50 (A. baumannii topoisomerase IA (AbTopoIA) (Acinetobacter baumannii, UniProt A0ABX6CBM5)) for entry CCCN1CCN(c2ccc3nc(-c4ccc5nc(-c6ccc(OCC)cc6)[nH]c5c4)[nH]c3c2)CC1 [PPEF] is 9.48
